I'd be grateful if you could share measured activation for these entries.
- targetOrSystem: Muscarinic acetylcholine receptor M5 (Homo sapiens) (UniProt P08912)
- Sequence (P08912 whole entry, looked up): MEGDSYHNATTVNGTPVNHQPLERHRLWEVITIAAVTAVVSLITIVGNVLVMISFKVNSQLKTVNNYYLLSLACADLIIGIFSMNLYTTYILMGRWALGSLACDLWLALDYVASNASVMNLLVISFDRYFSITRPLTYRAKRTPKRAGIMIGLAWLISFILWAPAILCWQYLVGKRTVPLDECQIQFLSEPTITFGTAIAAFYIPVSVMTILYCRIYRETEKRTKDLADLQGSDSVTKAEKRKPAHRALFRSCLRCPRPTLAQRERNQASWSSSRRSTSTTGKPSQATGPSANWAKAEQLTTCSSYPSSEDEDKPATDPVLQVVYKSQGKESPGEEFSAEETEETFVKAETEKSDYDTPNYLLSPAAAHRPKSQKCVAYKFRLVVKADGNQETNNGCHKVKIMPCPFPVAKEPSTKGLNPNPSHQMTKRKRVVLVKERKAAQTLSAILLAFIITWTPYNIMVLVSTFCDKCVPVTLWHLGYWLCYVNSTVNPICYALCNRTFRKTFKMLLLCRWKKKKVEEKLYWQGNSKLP
- measurementDescription: CHRM5 activators raising intracellular calcium – CHO-K1 cells, Fluo-8 calcium fluorescence, primary screen (AID 624037);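 note: signal is peak over basal fluorescence ratio across the kinetic read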
- runConditions: CHO-K1 hM5 cells, at 3 µM, active compounds read high, 0% DMSO wells, 100% maximal acetylcholine response
About 700 (0.19%) of roughly 360,000 compounds were called active. The list comes from a sample in which actives are over-represented; it also holds close analogues and randomly drawn compounds.
Kindly provide the numeric value in % only, without the unit symbol.

Provide activation, system Muscarinic acetylcholine receptor M5 (Homo sapiens) (UniProt P08912), entry COc1cccc(CNc2nc(NCc3cccs3)nc3ccsc23)c1
27.2

Retrieve activation on Muscarinic acetylcholine receptor M5 (Homo sapiens) (UniProt P08912); query COc1ccc(Cl)cc1NC(=O)CCS(=O)(=O)c1cc2c(cc1C)NC(=O)CO2
38

Please tell me the measured activation for CCNC(=O)C1(C)CCCN(Cc2noc(-c3ccccc3OC)n2)C1 (configuration not stated) ; system: Muscarinic acetylcholine receptor M5 (Homo sapiens) (UniProt P08912).
1.13

Print Muscarinic acetylcholine receptor M5 (Homo sapiens) (UniProt P08912) activation for CC(C)[C@H](NC(=O)N1CC(=O)Nc2ccccc21)C(=O)N[C@@H](Cc1c[nH]c2ccccc12)C(=O)O .
1.96

Name the recorded activation of O=C(CCCN=C1NS(=O)(=O)c2ccccc21)OCC(=O)c1ccc(F)c(F)c1 , assay system Muscarinic acetylcholine receptor M5 (Homo sapiens) (UniProt P08912).
37.2

# lookup: Muscarinic acetylcholine receptor M5 (Homo sapiens) (UniProt P08912) activation, key = COc1ccc(NC(=O)CN2C(=O)COc3ccc(S(=O)(=O)N4CCOCC4)cc32)c(OC)c1
0.4

Recall the reported activation of Cc1cc2c(cc1S(=O)(=O)CCC(=O)NCc1ccccc1)OCC(=O)N2 when tested on Muscarinic acetylcholine receptor M5 (Homo sapiens) (UniProt P08912).
0.35

Retrieve activation on Muscarinic acetylcholine receptor M5 (Homo sapiens) (UniProt P08912); query COCC1CCCN(C(=O)c2ccc3oc(C(C)C)nc3c2)C1 (configuration not stated)
-5.48

Give activation for this entry on Muscarinic acetylcholine receptor M5 (Homo sapiens) (UniProt P08912): Cc1nc(C(=O)Nc2ccc(Cl)cc2)sc1C1(C)CC(c2ccccc2)=NO1 (configuration not stated)
1.09

Give activation for this entry on Muscarinic acetylcholine receptor M5 (Homo sapiens) (UniProt P08912): Cc1occc(=O)c1OCc1c(Cl)cccc1Cl
-4.28

Give Muscarinic acetylcholine receptor M5 (Homo sapiens) (UniProt P08912) activation for the following compound: CC(C)[C@H](NC(=O)Nc1ccc(S(N)(=O)=O)cc1)C(=O)O
-2.17

Please indicate recorded activation of COCCN(C(=O)CCC(=O)Nc1ccccn1)C(C(=O)NCCC(C)C)c1ccc(OC)cc1 (configuration not stated) measured with Muscarinic acetylcholine receptor M5 (Homo sapiens) (UniProt P08912).
-1.86

State activation on Muscarinic acetylcholine receptor M5 (Homo sapiens) (UniProt P08912). Entry: CCOc1ccc(CNC(=O)CCC(=O)N2CCSc3ccccc32)cc1
3.47

Check Muscarinic acetylcholine receptor M5 (Homo sapiens) (UniProt P08912) data and give activation for O=C1/C(=C/c2ccc3c(c2)OCO3)Oc2cc(OCC(=O)N3CC(O)C[C@H]3C(=O)O)ccc21 (some centres not stated) .
0.73

Give Muscarinic acetylcholine receptor M5 (Homo sapiens) (UniProt P08912) activation for the following compound: CCCn1nc2cc(C(=O)NCc3ccccc3)ccc2c1OCC
-0.79

Consider the compound COc1ccc(NC(=S)NCc2cccs2)c(OC)c1 tested on Muscarinic acetylcholine receptor M5 (Homo sapiens) (UniProt P08912); state its activation.
-3.29

Send back Muscarinic acetylcholine receptor M5 (Homo sapiens) (UniProt P08912) activation of C=CCC(NC(=O)Cc1ccccc1)C(=O)NCCC (configuration not stated) only.
1.37

Output reported activation of the compound COc1ccc(NC(=O)CCS(=O)(=O)c2cc3c(cc2Cl)NC(=O)CO3)cc1OC on Muscarinic acetylcholine receptor M5 (Homo sapiens) (UniProt P08912).
-3.81

Look up and report measured activation (Muscarinic acetylcholine receptor M5 (Homo sapiens) (UniProt P08912)) for the following compound: COc1ccc(C(=O)/C=C/Nc2ccccn2)cc1
78

Supply activation measured with Muscarinic acetylcholine receptor M5 (Homo sapiens) (UniProt P08912) for COc1cccc(CNc2nc3cc(-c4csc5ccccc45)sc3c(=O)n2C)c1 .
-0.3

Return reported activation for target or system Muscarinic acetylcholine receptor M5 (Homo sapiens) (UniProt P08912), item CC(C)CCN1CCN(Cc2cn[nH]c2C2CCCCC2)CC1CCO (configuration not stated) .
-10.3

Report measured activation on Muscarinic acetylcholine receptor M5 (Homo sapiens) (UniProt P08912); entry: O=C(/C=C/Nc1ccc(S(=O)(=O)Nc2cnc3ccccc3n2)cc1)c1cccnc1
-3.4

----------
- targetOrSystem: Muscarinic acetylcholine receptor M5 (Homo sapiens) (UniProt P08912)
- measurementDescription: CHRM5 activators raising intracellular calcium – CHO-K1 cells, Fluo-8 calcium fluorescence, primary screen (AID 624037);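 note: signal is peak over basal fluorescence ratio across the kinetic read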
- runConditions: CHO-K1 hM5 cells, at 3 µM, 0% DMSO wells, 100% maximal acetylcholine response
The campaign covered roughly 360,000 compounds. About 700 (0.19%) were called active.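 How the source made its calls: active means activation above the run's mean over test compounds plus 3 SD (cut at about 23% in these data); inactive means the rest.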 This excerpt belongs to a sample that is enriched for actives.
In this exercise, the only acceptable responses are active, inactive

Field: outcome | Entry: Cc1nc(C)c2c(c1C(F)(F)F)-c1ccccc1C2(F)F
inactive

Kindly provide the recorded test outcome for the following compound: c1ccc(C(=NNc2nc3ccccc3s2)c2ccccn2)cc1
active

Check the results log: what was the call for Cc1ccc(CNC(=O)C(=O)c2cn(CC(=O)N3CCOCC3)c3ccccc23)cc1 ?
inactive

Tell me the recorded outcome of this test for Nc1c(C(=O)c2cccs2)sc2nsc(SCCN3CCCCC3)c12 .
active

Each compound tested received a call. Report the one for N#CC1(NC(=O)COC(=O)CCN=C2NS(=O)(=O)c3ccccc32)CCCCC1 .
inactive

Given Cc1ccccc1C(=O)NCCN=C1NS(=O)(=O)c2ccccc21 , state the outcome it received in this test.
inactive

----------
- targetOrSystem: Muscarinic acetylcholine receptor M5 (Homo sapiens) (UniProt P08912)
- measurementDescription: CHRM5 activators raising intracellular calcium – CHO-K1 cells, Fluo-8 calcium fluorescence, primary screen (AID 624037);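 note: signal is peak over basal fluorescence ratio across the kinetic read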
- runConditions: CHO-K1 hM5 cells, at 3 µM, 0% DMSO wells, 100% maximal acetylcholine response
Hit rate of the full screen: of about 360,000 compounds, about 700 (0.19%) were called active.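 How the source made its calls: active means activation above the run's mean over test compounds plus 3 SD (cut at about 23% in these data); inactive means the rest.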 Shown is part of a subset that was picked to be rich in actives.
The reply should name one outcome from active, inactive

Hello, I am checking results. What call was entered for O=C(O)CC/C(=N\NC(=O)c1ccc(F)cc1)c1ccc(Br)cc1 ?
inactive

Call for entry c1ccc2c(c1)OCC(CNc1ncnc3nc[nH]c13)O2 (configuration not stated) :
active

Test call for this molecule, please: CC/C(=N\NC(=O)c1c(C)nc2ccccn12)c1ccc(Cl)cc1
inactive

Look up the recorded call for O=C(Cn1nc(Cc2cccnc2)c2ccccc2c1=O)NCC1CCCO1 (configuration not stated) in this test.
inactive

# lookup: test call for CC(=O)OC(C)C[N+](C)(C)C (configuration not stated)
active

Per the records of this test, what outcome belongs to CCCCCCSc1nsc(N)n1 ?
inactive

Dear all, I need the recorded test outcome for CCc1ccc(NC(=O)C(C)OC(=O)/C=C/c2cccc([N+](=O)[O-])c2)cc1 (configuration not stated) , thank you.
inactive

Test call for this molecule, please: CCOC(=O)Cn1c(=O)oc2cc(S(=O)(=O)NCC3CCCO3)ccc21 (configuration not stated)
inactive

Tell me the assay call for CCOc1ccc(NC(=O)CN(C)C(=O)COc2cccc(CC)c2)cc1OCC please.
inactive

Check the results log: what was the call for Cc1cc(C(=O)NNC(=S)Nc2ccccc2C)cs1 ?
inactive

Answer briefly: the call reported for Cc1ccccc1N/C(SCc1ccc(Cl)cc1)=C(/C#N)C(N)=O in this assay.
inactive

For CSCCC(NC(=O)COc1ccccc1)C(=O)N(C)CC(=O)Nc1ccc(C)cc1 (configuration not stated) , what call appears in the results of this test?
inactive

Hey, what did the test say about Cc1c(C(=O)NCc2ccc(C#N)cc2)sc(=O)n1Cc1ccc(C(=O)N(C)C)cc1 ?
inactive

Answer briefly: the call reported for CCn1c(C(C)C)n[nH]c1=S in this assay.
inactive

Field: outcome | Entry: CC(C)C[C@H]1CNC(=S)N1C[C@H]1CCCN1C[C@H](Cc1ccc(O)cc1)N1C[C@H](Cc2ccc(O)cc2)N(CC2CCCCC2)C1=S
inactive

Record request — test call for Cc1ccc(CNC(=O)c2cccc3c2C(=O)c2ccc(N4CCC(C)CC4)cc2S3(=O)=O)cc1
inactive

Could you please tell me the result logged for CC(C)C[C@H](NC(=O)NCCc1ccc(Cl)cc1)C(=O)O in this assay?
inactive

Test call, this molecule: Cc1ccc(C)c(NC(=O)c2ccc(OC(=O)c3ccco3)cc2)c1
inactive

Write down the call the test reported for this molecule. Item: CC(C)(C)N(Cc1ccccc1)C(=O)c1ccncc1
inactive

Name the outcome recorded for CC(=O)Nc1cccc(-c2cc3nc(NCc4cccnc4)n(C)c(=O)c3s2)c1 in the assay.
inactive

// param item: COc1ccccc1C(=O)Oc1ccc(N2C(=O)CCC2=O)cc1 ; yields the recorded call
inactive

Answer briefly: the call reported for Cc1ccc(S(=O)(=O)N2CCCC2CO)cc1 (configuration not stated) in this assay.
inactive

Assay outcome for Cc1ccccc1NC(=S)NC(=O)Cc1ccc(Cl)cc1 : what was it?
active

# fetch the recorded call for O=C1c2ccccc2C(=O)N1CCOc1ccc(F)cc1 here
inactive

Field: outcome | Entry: Cc1ccsc1C(=O)NNC(=O)COc1ccc(Br)cc1
inactive

# fetch the recorded call for Nc1nc2c(ncn2[C@@H]2O[C@H](CNCc3ccc(OCCCN4CCOCC4)cc3)[C@@H](O)[C@H]2O)c(=O)[nH]1 here
inactive

Query: recorded result category for O=C(CCN1C(=O)[C@H]2CC=CC[C@H]2C1=O)NCc1nc(-c2ccccc2)no1 in this test
inactive

Record lookup: outcome of this test for CC(=O)OCCC(C)C ?
inactive

Give the logged outcome of this assay for the following molecule: CC(=O)Oc1ccc(Cn2c(C)c(C(=O)NCc3ccc(C#N)cc3)sc2=O)cc1
active

Give the logged outcome of this assay for the following molecule: Cc1cc(C)cc(NC(=O)N(C)Cc2ccccc2)c1
inactive

What outcome does the record of this test show for CCC(C)(C)NC(=O)CN(C(=O)CCC(=O)Nc1nccs1)c1ccc2c(c1)OCO2 ?
inactive

Query: recorded result category for COC(=O)c1c(NC(=O)c2ccccc2F)sc2c1C(C(=O)OC)CC2 (configuration not stated) in this test
inactive

Kindly provide the recorded test outcome for the following molecule: C=CC[n+]1c(-c2ccc(C)cc2)csc1NNC(=O)Nc1ccccc1
inactive

Test call, this molecule: Nc1ccc2c(c1)C(=Cc1cccnc1)c1ccccc1-2
inactive

Assay outcome for CCCS(=O)(=O)N1CCN(C(=O)c2cccs2)CC1 : what was it?
inactive

Status in this test for O=[N+]([O-])/C=C1\CCCCCN1 ?
inactive

Per the records of this test, what outcome belongs to O=C(Oc1ccc(C(=S)N2CCOCC2)cc1)c1ccc(F)cc1 ?
inactive
